FYI, the data here is from PubChem BioAssay (NCI).

# System: SF-268 CNS
# Assay Method Text: NCI-60 one-dose screen, 48 h (100 = growth as untreated, 0 = no growth, -100 = all killed)
# Protocol Conditions: 10 µM unless noted
# Procedure: Cells are grown in 96 well plates and exposed to the test compound for 48 hours. Compounds are tested at a single concentration, which is 10^-5 M for most compounds. The reported endpoint is percent growth (GI% or GIPRCNT), where numbers from 0 - 100% represent growth inhibition, and numbers from -100% - 0 represent cell death. For example, a value of 40 represents 60% growth inhibition. A value of 0 means no net growth occurred over the course of the experiment. […]
The panel holds about 83,000 compounds, 20% with a hit somewhere; the sample as a whole holds those more often.
Give label 1 when the value for growth is at least 90%. Give label 0 when it is less.

Field: example entries. Status: answers known.
- CCCCCOC(=O)c1cccc(NC(=O)CN(CC)CC)c1: label 1
- NC(=S)c1csc(CCNC(=O)c2ccccc2)n1: label 1
- CCCCCCCC/C=C/CCCCCCCC1=NCC[N+]1(CCO)CCO: label 0

Is growth for CCOC(=O)c1cnn2c(-c3ccc(Cl)cc3)nc(NCc3ccccc3)nc12 at or above 90%?
label 0

Is growth for N=C(N)c1ccc(-c2ccc(/C=C/c3ccccc3)s2)cc1 at or above 90%?
label 0

Is growth for COc1cc2oc(-c3cccc(C(=O)Nc4ccc(C)cc4)c3)cc(=O)c2c(OC)c1OC at or above 90%?
label 0

Is growth for CN(C)c1ccc2cc(-c3ccc(Cl)c(Cl)c3)c(N)nc2c1 at or above 90%?
label 0

Is growth for CCCCNCC(=O)Nc1ccc(C(=O)OCC)cc1 at or above 90%?
label 1

Is growth for COc1ccc(-n2sc(=O)n(Cc3ccc(COC(=O)C(C)c4ccc(CC(C)C)cc4)cc3)c2=O)cc1 (stereo unspecified) at or above 90%?
label 0

Is growth for O=C1Nc2ccccc2/C1=N/N=C/c1c[nH]c2ccccc12 at or above 90%?
label 0

----------
# System: NCI-H460 lung
# Assay Method Text: NCI-60 one-dose screen, 48 h (100 = growth as untreated, 0 = no growth, -100 = all killed)
# Protocol Conditions: 10 µM unless noted
About 83,000 compounds went through this panel and 20% of them were active in at least one assay; those are over-represented in the sample as a whole. The source made the active and inactive calls. The calls were made as follows: active = growth percent below 10; inactive = the rest.
Each entry below carries its reported growth.

Example entries begin here.
* O=C(NCc1cccnc1)c1cc(-c2csc3c(=O)cc(N4CCOCC4)oc23)cc2c1OCCO2 | 52.5% (inactive)
* Cc1cn(C2CCCCC2)c(=O)[nH]c1=O | 117% (inactive)
* O=C1CSC(c2ccccc2O)N1c1nnc(Cn2cnnc2)o1 (stereo not drawn) | 86.9% (inactive)

Query compound follows.
Would you mind telling me what growth value was observed for COc1cc(NC(=O)c2cccc(-c3cc(=O)c4c(OC)c(OC)c(OC)cc4o3)c2)cc(OC)c1OC ?
30% (inactive)

----------
Each entry below carries its reported growth.
# Tested on: HCT-15 colon
# Assay Method Text: NCI-60 one-dose screen, 48 h (100 = growth as untreated, 0 = no growth, -100 = all killed)
# Protocol Conditions: 10 µM unless noted
Compounds without any hit were thinned out: in the full panel of roughly 83,000, 20% have a hit. The source made the active and inactive calls. Rule for the calls: active = growth percent below 10; inactive = the rest.

* COc1ccc(/C=C2\COc3ccc(O)cc3C2=O)c(OC)c1 | 34.4% (inactive)
* NS(=O)(=O)Oc1ccc(-c2sc3cc(O)ccc3c2C(=O)c2ccc(OCCN3CCCCC3)cc2)cc1 | 36.2% (inactive)
* CN1CCC(=C2c3ccccc3C=Cc3ccccc32)CC1 | 73.7% (inactive)
* COc1ccc2c(c1)/C(=C\c1sc(=S)[nH]c1O)C(C(=O)O)=N2 | 100% (inactive)

Would you mind telling me what growth value was observed for Cc1nc(Nc2ccc(NC(=S)Nc3ccccc3)cc2)c2ccccc2n1 ?
101% (inactive)

----------
# Tested on: NCI-H322M lung
# Assay Method Text: NCI-60 one-dose screen, 48 h
# Protocol Conditions: 10 µM unless noted
# Experimental: Growth inhibition of the NCI-H322M human Non-Small Cell Lung tumor cell line is measured as a screen for anti-cancer activity. Cells are grown in 96 well plates and exposed to the test compound for 48 hours. Compounds are tested at a single concentration, which is 10^-5 M for most compounds. The reported endpoint is percent growth (GI% or GIPRCNT), where numbers from 0 - 100% represent growth inhibition, and numbers from -100% - 0 represent cell death. […]
The panel holds about 83,000 compounds, 20% with a hit somewhere; the sample as a whole holds those more often. The source made the active and inactive calls. The calls were made as follows: active = growth percent below 10; inactive = the rest.
Permitted responses: active, inactive

# lookup: test call for Cc1ccc(S(=O)(=O)NN/C(N)=N\S(=O)(=O)c2cc(C)c(Cl)cc2SCc2ccccc2)cc1
inactive

----------
# System: SK-MEL-5 melanoma
# Assay Method Text: NCI-60 one-dose screen, 48 h
# Protocol Conditions: 10 µM unless noted
The panel holds about 83,000 compounds, 20% with a hit somewhere; the sample as a whole holds those more often. Active and inactive are the calls of the source. Rule for the calls: active = growth percent below 10; inactive = the rest.
Permitted responses: YES = active, NO = inactive

Field: example entries. Status: answers known.
- CCCn1nc(-c2ccccc2)c2c(-c3ccccc3)onc2c1=O: NO
- COc1cc(-c2ccc(-c3ccc(C(=N)N)nc3)s2)cc(OC)c1OC: NO
- N=C(N)c1ccc(-c2ccc(-c3ccc(Cl)c(Cl)c3)o2)nc1: NO

# lookup: test call for O=C1Nc2ccccc2SC1c1ccccc1Cl (centres undefined)
NO

# lookup: test call for C[C@@H]1CC[C@@H]2[C@@H]1[C@H](OC(=O)/C=C/c1ccccc1)[C@]1(CCCOCCOCCOCCOC(=O)CCCC[C@@H]3SC[C@@H]4NC(=O)N[C@@H]43)C[C@@H](OC(=O)CO)[C@@]2(C)O1
NO

# lookup: test call for COc1ccc(-c2nc3ncccn3c2/C=C/C(=O)c2cc(OC)c(OC)c(OC)c2)cc1
YES

# lookup: test call for CC(c1ccc(-n2cccn2)cc1)c1cnc(N2CCc3ccc(C(N)=O)cc3C2)s1 (centres undefined)
NO

# lookup: test call for N#Cc1c(NC(=O)c2ccc(Br)cc2)sc2c1CCCC2
YES

# lookup: test call for O=C1CC(c2ccc3c(c2)OCO3)Nc2cc3c(cc21)OCO3 (centres undefined)
YES

# lookup: test call for COc1cc(C2CC(c3ccc(Nc4nc(Nc5ccc(F)cc5)nc(Nc5ccc(Cl)cc5)n4)cc3)=NN2C(C)=O)cc(OC)c1OC (centres undefined)
NO

----------
# Test system: HOP-62 NSCLC
# Assay Method Text: NCI-60 one-dose screen, 48 h
# Protocol Conditions: 10 µM unless noted
The panel holds about 83,000 compounds, 20% with a hit somewhere; the sample as a whole holds those more often. Activity calls are given as the source filed them. How the source made its calls: active means growth percent below 10; inactive means the rest.
Permitted responses: 1 = active, 0 = inactive

Field: example entries. Status: answers known.
* CCCCCOC(=O)c1ccc(NC(=O)CNCC(C)C)cc1 | 0
* Cc1nc(Nc2ccccn2)sc1C(=O)/C=C/c1ccc(Br)cc1 | 0
* Cc1nc(Nc2ccc(NC(=S)Nc3ccccc3)cc2)c2ccccc2n1 | 0

# lookup: test call for COC(=O)[C@]12CC[C@@H](C)[C@H](C)[C@@H]1C1=CC[C@@H]3[C@@]4(C)C(C=O)=C[C@@](C)(CO)C4=CC[C@@]3(C)[C@]1(C)CC2
0

# lookup: test call for COc1cc2c(cc1OC)-c1ccc3cc4c(cc3c1N(CCCn1ccnc1)C2)OCO4
0

# lookup: test call for N[C@H]1CCC[C@@H]1NCCCCN1C(=O)c2cccc3cccc(c23)C1=O
0

# lookup: test call for Cn1cc(-c2ccc3nc(-c4ccc(CC(=O)Nc5cc(C(C)(C)C)no5)cc4)cnc3c2)cn1
0

# lookup: test call for CN1CCC(=C2c3ccccc3C=Cc3ccccc32)CC1
0

----------
# Test system: SF-539 CNS
# Assay Method Text: NCI-60 one-dose screen, 48 h
# Protocol Conditions: 10 µM unless noted
# Protocol: Cells are grown in 96 well plates and exposed to the test compound for 48 hours. Compounds are tested at a single concentration, which is 10^-5 M for most compounds. The reported endpoint is percent growth (GI% or GIPRCNT), where numbers from 0 - 100% represent growth inhibition, and numbers from -100% - 0 represent cell death. For example, a value of 40 represents 60% growth inhibition. A value of 0 means no net growth occurred over the course of the experiment. […]
This is part of a sample that, as a whole, favours compounds with a hit. Of some 83,000 tested, about 20% had one in any assay. Activity calls are given as the source filed them. Rule for the calls: active = growth percent below 10; inactive = the rest.
Permitted responses: 1 for active, 0 for inactive

Field: example entries. Status: answers known.
* CC(=O)c1cc2c(o1)C(=O)c1ccccc1C2=O | 1
* O=C(Nc1cccc2[nH]c(C(F)(F)F)nc12)c1cc(Cl)ccc1Cl | 0
* C/C(Cc1ccc(Cl)cc1)=C(/c1ccc(Cl)cc1)c1ccc(OCCN(C)C)cc1 | 0
* Cc1cc(-c2ccccc2)cc(SC#N)[n+]1[O-] | 0
* COc1cc2oc3cc(C)oc(=O)c3c2cc1OC | 0
* N=C(N)c1ccc(-c2ccc(-c3ccc(Cl)cn3)s2)cc1 | 0
* C[C@@H]1C(=O)N(C[C@@H](Cc2ccccc2)NC(=O)OCc2ccccc2)[C@]1(Cc1ccccc1)C(=O)OCc1ccccc1 | 0
* CCN1CCN(c2ccc(Nc3cc(-c4cccnc4Nc4c(Cl)c(OC)cc(OC)c4Cl)ncn3)cc2)CC1 | 0
* CC(C)OCCCNCC(=O)Nc1ccc(S(=O)(=O)c2ccc(NC(=O)CNCCCOC(C)C)cc2)cc1 | 0

Let us examine a further case.
# lookup: test call for Cc1cc(=O)[nH]c(N/N=C/c2cc(Br)ccc2O)n1
0
